testProtocol: Specific activity of purified CHI, absorbance decrease at 384 nm, homoeriodictyol chalcone; also: unit not given here
Assay type: biochemical
conditionSet: purified CHI in 50 mM PBS, 100 μM substrate, 25° C.
Kindly supply the reported Specific activity, Homoeriodctiol chalcone values for the records listed here.
Please reply with the value in numeric form only.

Incoming: Given the molecule CHI2: Chalcone isomerase from Tepidanaerobacter acetatoxydans, access no. WP_013779275.1 (protein, Tepidanaerobacter acetatoxydans) DTEFKPMRSLIYVGVAKEEYRHKLKNWLYRYHIPDSISQFAPYVTKYAFYNALPVPPEGERFGAYNMQLTEHYWLINPMNPQLKIKAFTEFFPVDVLKWQGNIPDDADADSVNIEGDAARSSGGDNGMPPFIFAFIPFWWEEDFKGAGRTVEDGPNYRWQFLIQYPNGISLEEGDQWFYKKLVPAFKEMPEVNRFLTSRVIRDVNDCQFHRVIEMWFDGPEEWYRAAVEKGKSIERPHWATAEEFPYLKPKFQIASLFLTDIADSDNYSQYRGYITMR , write its reported Specific activity, Homoeriodctiol chalcone.
Outgoing: 19.9

Incoming: Given the molecule CHI9: Chalcone isomerase from Roseburia sp. OM02-15, access no. WP_118702262.1 (protein, Roseburia sp. OM02-15) GEITYQPLRSLIYVDCVKEEYRHKLQHWLYYYHAPESIAKFEPWVTKYAFYNALPTPPQGERFGTYRMQLTEHYWMVNPMSQESLVNSLNEYFPIDAMIWQGTLPENAKEDGFMADGEAARASGGDNGCPPFIFAFLPIFWEQDLKGAGRTMVDGPNYRWQFLVSYPEGHKEDGDQWMMNEVLPAFAAMPEVTRMMTSKVKKEINNCHMDRCVEMWFDGPEEWYHCAVENAASFKKPEWAEYDNFPYLRPQFQFASLFLTDIATSDNLKQYRGYLPMR , write its reported Specific activity, Homoeriodctiol chalcone.
Outgoing: 10.4

Incoming: Given the molecule CHIera Mut11: Chalcone isomerase variant 11 from Eubacterium ramulus, genetically engineered (protein, listed as Eubacterium ramulus) MADFKFEPMRSLIYVDCVSEDYRPKLQRWIYKVHIPDSISQFEPYVTKYAFYPSFPIPPQGDRFGYARMQLTEHHWLVSPLDPRLEIKAIAETFPMDVLVWQGQIPAAAHTDAQIDSDGDAGDAARKSNNAEGNPFIFAFLPMWWEKDLKGKGRTIEDGANYRFNMTIGFPEGVDKAEGEKWLFEKVVPILQAAPECTRVLASAVKKDINGCVMDWVLEIWFENQSGWYKVMVDDMKALEKPSWAQQDAFPFLKPYHNVCSAAVADYTPSNNLANYRGYITMR , write its reported Specific activity, Homoeriodctiol chalcone.
Outgoing: 30.8

Incoming: Given the molecule CHI3: Chalcone isomerase from Clostridium sp. JN500901, access no. WP_119972745.1 (protein, Clostridium sp. JN500901) SIEFKPMRSLIYVDVVKEDYRHMLKHWLYYHHIPDSISQFGPYVTKYAFYPALPTPPDGERFGTHRMQLTEHYWLVNPLTPEFKNKTMTEYFPVDVLKWQGNVPDDNEVAILEGKETEKVESGDAARSTGGDNGMPPFIWAFVPISWEEDLKGEGRSMEDGPNYRWQFVMKYPDGVPMEEGDKWFYKEVIPKFQDSPDVTRILTSKIIQNINDCPYQRIVEMWFNCPSGWHRAAVEKAREIKKPSWAKYDEFPYLKPKFEISSLFLTDIAESDNYTQYRGFIPMR , write its reported Specific activity, Homoeriodctiol chalcone.
Outgoing: 7.8
